# target-under-test: T1, LNX2_2, Q8N448
# T1 sequence (Q8N448 334-432, limits assumed, looked up): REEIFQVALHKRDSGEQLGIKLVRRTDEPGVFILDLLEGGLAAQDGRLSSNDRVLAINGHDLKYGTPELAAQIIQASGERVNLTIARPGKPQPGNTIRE
# measurement-protocol: holdup assay
# Design: key: below the threshold = too weak to quantify, mostly under pKd 3.1 to 4
# experimental-conditions: plain residues with an end cap or a label only (N-terminal biotin on a linker: ado-ado)
property-measured: pKd

[[record]]
binder = "ETQVTAETVI [TMEM225B, P0DP42]"
property_measured = "pKd"
reported_result = 4.46

[[record]]
binder = "PPYRHRNTVV [ERBB4, Q15303]"
property_measured = "pKd"
reported_result = 4.69

[[record]]
binder = "YNNCLEILRV [DCAF7, P61962]"
property_measured = "pKd"
reported_result = 4.91

[[record]]
binder = "QGPVETESVV [SLC45A4, Q5BKX6]"
property_measured = "pKd"
reported_result = 4.31

[[record]]
binder = "TKGPRGPTRV [SAPCD1, Q5SSQ6]"
property_measured = "pKd"
reported_result = 3.87

[[record]]
binder = "QSPANIYYKV [EFNB1, P52799]"
property_measured = "pKd"
reported_result = 4.25

[[record]]
binder = "VYPNAKVELV [PDLIM4_iso2, P50479;P50479-1]"
property_measured = "pKd"
reported_result = 4.62

[[record]]
binder = "GSGAVEMESV [AQP6, Q13520]"
property_measured = "pKd"
reported_result = 3.49

[[record]]
binder = "HLRARKSEWV [GJD4, Q96KN9]"
property_measured = "pKd"
reported_result = 5

[[record]]
binder = "KSGKQTMLVV [TRIM29, Q14134;Q14134-2]"
property_measured = "pKd"
reported_result = 5.19

[[record]]
binder = "YYKRPVQEWV [MMP24, Q9Y5R2]"
property_measured = "pKd"
reported_result = 4.86

[[record]]
binder = "SNAGNTATKA [NOSTRIN, Q8IVI9]"
property_measured = "pKd"
reported_result = 3.56

[[record]]
binder = "SGSLKLMTTV [DACT1, Q9NYF0]"
property_measured = "pKd"
reported_result = 4.63

